# Tested on: HT29 colon
# PROTOCOL_DESCRIPTION: NCI tumour cell line growth inhibition, 48 h
RECORDED_ENDPOINT: TGI

| COMPOUND | RECORDED_ENDPOINT | MEASURED_VALUE |
| --- | --- | --- |
| CCN(CC)C1Oc2cc3c(cc2C(c2cc(OC)c(OC)c(OC)c2)C1C)OCO3 (configuration not stated) | TGI | 9.95 µM |
| COc1cc2oc(=O)cc(C)c2c(OC)c1OC(C)=O | TGI | > 100 µM |
| CC(/C=C/NNC1=NC(c2ccccc2)C(c2ccccc2)=NN1)Sc1ccccc1N (configuration not stated) | TGI | 23.9 µM |
| CN(C)CCNC(=O)c1cc(NC(=O)c2cc(NC(=O)CC/C=C3/[C@@H]4CC[C@H]3N=N4)cn2C)cn1C | TGI | > 100 µM |
| CS(=O)(=O)NNS(=O)(=O)c1ccc(Cl)cc1 | TGI | > 100 µM |
| O=C(O)CCSC1=NCCN1 | TGI | > 100 µM |
| NC(=S)N/N=C1\CCCC1C(O)(C(F)(F)Cl)C(F)(F)Cl (configuration not stated) | TGI | > 10 µM |
| C/C(=C(/c1ccc(O)cc1)c1ccc(Cl)cc1)c1ccccc1 | TGI | 3.17 µM |
| O=[N+]([O-])c1cc(F)ccc1Sc1ccccc1 | TGI | > 10 µM |
| CCCCCCCCCCCCCC(=O)NCC(OCC)OCC | TGI | > 100 µM |
| COc1cc2oc(=O)cc(C)c2cc1OC | TGI | > 100 µM |
| COC1(OC)C=CC(=O)C=C1 | TGI | 12.1 µM |
| Cc1c(C#N)c(=N)oc2ccccc12 | TGI | > 100 µM |
| CC(=O)c1cc(-c2ccccc2N)n(-c2ccc3c(c2)OCO3)c1C | TGI | > 35.6 µM |
| O=C(O)COc1cc(-c2ccccc2)nc2ccccc12 | TGI | > 100 µM |
| CCOC(=O)CCC(NC(=O)OCc1ccccc1)C(=O)NC(CCC(=O)OCC)C(=O)NC(CCC(=O)OCC)C(=O)NNC(=O)OC(C)(C)C (configuration not stated) | TGI | > 100 µM |
| O=C1C(Cl)=C(c2ccc([N+](=O)[O-])cc2)C(=O)c2c(O)cccc21 | TGI | 7.37 µM |

Measured values drawn from PubChem BioAssay (NCI) for this set.
